P.D.I. overview
Experiment: Size distribution, polydispersity and Z-potential of LNPs by dynamic light scattering (Malvern Zetasizer)
Format: physicochemical
Conditions: LNPs, standard formulation 50:10:38.5:1.5; DLS
Description: The LNP solution was then adjusted to a final concentration of mRNA of 100 µg/ml. Size distribution, polydispersity and Z-potential were measured by dynamic light scattering (DLS) using Malvern Zetasizer Advance Lab Blue Label. RNA encapsulation was assessed by Quant-IT® Ribogreen following the manufacturer's instructions.
Note: the reply should be a number with no unit written.

[
  {
    "compound": "CCCCCCCC/C=C\\CCCCCCCC(=O)NC(CCSCC(=O)OCCCCCCCCCCCCC)C(=O)NCCCN1CCOCC1 (stereo not drawn)",
    "P.D.I.": 0.14
  },
  {
    "compound": "CCCCCCCCC(CCCCCCCC)OC(=O)C(CSCCC(=O)OCCCCCC)CC(=O)NCCCN1CCOCC1 (stereo not drawn)",
    "P.D.I.": 0.16
  },
  {
    "compound": "CCCCCCCCCCCCOC(=O)CCSCCC(NC(=O)C(CCCCCC)CCCCCCCC)C(=O)NCC1CCN(C)CC1 (stereo not drawn)",
    "P.D.I.": 0.22
  }
]

I have this compound here, CCCCCCCCCCCCCOC(=O)CCSCCC(NC(=O)C(CCCCCC)CCCCCCCC)C(=O)NCC1CCN(C)CC1 (stereo not drawn) , and I need its recorded P.D.I..
0.18

I have this compound here, CCCCCCCCC(CCCCCCCC)OC(=O)C(CSCCC(=O)OCC(CC)CCCC)CC(=O)NCCCN1CCOCC1 (stereo not drawn) , and I need its recorded P.D.I..
0.14

I have this compound here, CCCCCCCCC(CCCCCC)C(=O)NC(CCSCCC(=O)OCC(CC)CCCC)C(=O)NCC1CCN(C)CC1 (stereo not drawn) , and I need its recorded P.D.I..
0.12
